test: Concentration to inhibit growth of normal rat K-ras-transformed cells (KNRK 5.2 cells) after 72 hr exposure; assay type: functional
// reported pIC50 for each item listed
In plain terms, pIC50 is the concentration in mol/L turned into minus its base-10 logarithm.

- CCN(CC)c1ccc(NC(=O)CO\N=C2/C=C/C=C\[C@H]3O[C@@H]3C[C@@H](C)OC(=O)c3c(O)cc(O)c(Cl)c3C2)cc1: 6.62
- C[C@@H]1C[C@H]2O[C@@H]2\C=C/C=C/C(=N\OCC(=O)NC2CCCCC2)Cc2c(Cl)c(O)cc(O)c2C(=O)O1: 7.14
- C[C@@H]1C[C@H]2O[C@@H]2\C=C/C=C/C(=N\OCC(=O)Nc2ccccc2)Cc2c(Cl)c(O)cc(O)c2C(=O)O1: 6.54

Entry C[C@@H]1C[C@H]2O[C@@H]2/C=C\C=C\C(=O)Cc2c(Cl)c(O)cc(O)c2C(=O)O1 [RADICICOL] : reported pIC50 = ?
6.96

// repeat for `COC(=O)CNC(=O)CO\N=C1/C=C/C=C\[C@H]2O[C@@H]2C[C@@H](C)OC(=O)c2c(O)cc(O)c(Cl)c2C1` and report
6.24

// repeat for `C[C@@H]1C[C@H]2O[C@@H]2\C=C/C=C/C(=N\OCC(=O)Nc2cccnc2)Cc2c(Cl)c(O)cc(O)c2C(=O)O1` and report
6.92

---

test: Concentration to inhibit growth of v-src-transformed cells (SR-3Y1 cells) after 72 h exposure; format: functional; conditions: Rattus norvegicus, SR3Y1, 72 h
OBSERVED PROPERTY: pIC50
In plain terms, pIC50 is the concentration in mol/L turned into minus its base-10 logarithm.

Answered cases to consult:
- C[C@@H]1C[C@H]2O[C@@H]2\C=C/C=C/C(=N\OCC(=O)Nc2cccnc2)Cc2c(Cl)c(O)cc(O)c2C(=O)O1: 7.29
- CCN(CC)c1ccc(NC(=O)CO\N=C2/C=C/C=C\[C@H]3O[C@@H]3C[C@@H](C)OC(=O)c3c(O)cc(O)c(Cl)c3C2)cc1: 7.00

Consider the additional molecule presented here.
Entry `C[C@@H]1C[C@H]2O[C@@H]2\C=C/C=C/C(=N\OCC(=O)NC2CCCC2)Cc2c(Cl)c(O)cc(O)c2C(=O)O1` : reported pIC50 = ?
8.01

---

test: Concentration to inhibit growth of normal rat K-ras-transformed cells (KNRK 5.2 cells) after 72 hr exposure; assay type: functional
pIC50: −log10 of the molar value.
Label rule, in plain words: pIC50 of 7 and up is True, under 7 is False.

Please review the following examples before continuing.
- C[C@@H]1C[C@H]2O[C@@H]2\C=C/C=C/C(=N\OCC(=O)N2CCN(C)CC2)Cc2c(Cl)c(O)cc(O)c2C(=O)O1: False
- C[C@@H]1C[C@H]2O[C@@H]2\C=C/C=C/C(=N\OCC(=O)N2CCCCC2)Cc2c(Cl)c(O)cc(O)c2C(=O)O1: True
- C[C@@H]1C[C@H]2O[C@@H]2\C=C/C=C/C(=N\OCC(=O)N2CCOCC2)Cc2c(Cl)c(O)cc(O)c2C(=O)O1: False
- C[C@@H]1C[C@H]2O[C@@H]2\C=C/C=C/C(=N\OCC(=O)N2CCC(N3CCCCC3)CC2)Cc2c(Cl)c(O)cc(O)c2C(=O)O1: False
- CCN(CC)CCNC(=O)CO\N=C1/C=C/C=C\[C@H]2O[C@@H]2C[C@@H](C)OC(=O)c2c(O)cc(O)c(Cl)c2C1: False

Please find the next compound below.
Kindly determine if pIC50 recorded for `C[C@@H]1C[C@H]2O[C@@H]2\C=C/C=C/C(=N\OCC(=O)NCCc2cccn2C)Cc2c(Cl)c(O)cc(O)c2C(=O)O1` is above or exactly 7.
False

These measurements were taken from ChEMBL document CHEMBL1145797.
